# Test target: hmGluR1 receptor (Homo sapiens, UniProt Q13255)
# Construct: expressed in transfected cells; host or cells: CHO
# Sequence (Q13255 19-1194): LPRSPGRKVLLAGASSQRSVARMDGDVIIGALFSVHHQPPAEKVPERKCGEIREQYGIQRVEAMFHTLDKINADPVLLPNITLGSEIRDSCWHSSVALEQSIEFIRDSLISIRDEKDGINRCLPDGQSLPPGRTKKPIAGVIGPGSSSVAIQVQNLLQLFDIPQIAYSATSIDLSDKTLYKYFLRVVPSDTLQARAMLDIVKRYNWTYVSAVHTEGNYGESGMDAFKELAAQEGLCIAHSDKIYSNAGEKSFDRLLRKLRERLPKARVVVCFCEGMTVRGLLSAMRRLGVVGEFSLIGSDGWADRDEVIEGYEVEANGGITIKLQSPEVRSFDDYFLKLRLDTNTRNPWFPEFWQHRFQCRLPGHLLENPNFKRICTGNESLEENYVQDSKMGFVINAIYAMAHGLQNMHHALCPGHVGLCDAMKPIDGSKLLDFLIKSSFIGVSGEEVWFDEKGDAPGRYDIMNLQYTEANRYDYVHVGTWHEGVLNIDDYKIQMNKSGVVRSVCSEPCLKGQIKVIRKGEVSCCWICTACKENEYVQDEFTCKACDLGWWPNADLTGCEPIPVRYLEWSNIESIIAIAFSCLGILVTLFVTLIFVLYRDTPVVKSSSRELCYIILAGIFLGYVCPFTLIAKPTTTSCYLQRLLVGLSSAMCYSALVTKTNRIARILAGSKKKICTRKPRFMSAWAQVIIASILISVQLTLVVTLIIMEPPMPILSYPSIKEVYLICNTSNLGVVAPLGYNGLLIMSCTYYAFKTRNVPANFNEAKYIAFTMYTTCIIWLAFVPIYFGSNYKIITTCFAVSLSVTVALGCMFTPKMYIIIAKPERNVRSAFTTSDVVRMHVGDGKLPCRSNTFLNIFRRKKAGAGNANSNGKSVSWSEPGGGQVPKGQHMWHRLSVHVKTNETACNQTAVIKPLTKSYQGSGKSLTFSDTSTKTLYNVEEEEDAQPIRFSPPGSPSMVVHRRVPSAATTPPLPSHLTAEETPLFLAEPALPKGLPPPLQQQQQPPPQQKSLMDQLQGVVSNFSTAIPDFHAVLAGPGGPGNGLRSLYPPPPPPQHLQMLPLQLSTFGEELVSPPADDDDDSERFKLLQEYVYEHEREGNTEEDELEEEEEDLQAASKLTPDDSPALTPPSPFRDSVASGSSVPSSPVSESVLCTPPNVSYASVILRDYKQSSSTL
# Procedure details: IC50 determination: intracellular calcium mobilization (FLIPR) upon Quisqualate stimulation in CHO cell line stably expressing hmGluR1
# Type: cell-based
# Cond: CHO cells expressing hmGluR1; against Quisqualate 1 μM (EC80); compounds added 10 minutes before Quisqualate; read-out: mGluR1 IC50 rating
The entries below come with measured IC50 values attached.

Solved cases below.
INSERT INTO results (molecule, test_target, value_observed) VALUES
  ('COc1ccc(-n2ncc3c(sc4nccc(N(C)C)c43)c2=O)cc1', 'hmGluR1 receptor (Homo sapiens, UniProt Q13255)', '< 20 nM'),
  ('Cc1n[nH]c(=O)c2sc3nccc(N(C)C)c3c12 [Compound 13A]', 'hmGluR1 receptor (Homo sapiens, UniProt Q13255)', '> 1000 nM'),
  ('COc1ccc(-n2ncc3c(sc4ncnc(NC5CC5)c43)c2=O)cc1 [Compound 35B]', 'hmGluR1 receptor (Homo sapiens, UniProt Q13255)', '20 to 100 nM'),
  ('CN(C)c1ccnc2sc3c(=O)n(C4CCCCC4)ncc3c12', 'hmGluR1 receptor (Homo sapiens, UniProt Q13255)', '20 to 100 nM'),
  ('COc1ccc(-n2ncc3c(sc4ncnc(OC)c43)c2=O)cc1 [Compound 34B]', 'hmGluR1 receptor (Homo sapiens, UniProt Q13255)', '100 to 1000 nM');

(Q) Give IC50 for the following molecule: COc1ccnc2sc3c(=O)n(-c4ccc(Cl)cc4)ncc3c12 [Compound 21A]
(A) 20 to 100 nM

====

# Test target: hmGluR1 receptor (Homo sapiens)
# Construct: expressed in transfected cells; host or cells: CHO
# Procedure details: IC50 determination: intracellular calcium mobilization (FLIPR) upon Quisqualate stimulation in CHO cell line stably expressing hmGluR1
# Format: cell-based
# Cond: CHO cells expressing hmGluR1; against Quisqualate 1 μM (EC80); compounds added 10 minutes before Quisqualate; read-out: mGluR1 IC50 rating
# Procedure: A CHO cell line stably expressing hmGluR1 receptor was established. One day prior to assay, cells were split in growth media at concentration of 50,000 cells/well in a volume of 100 μl and seeded into black clear-bottom 96-well plates. […] A 96-tip pipettor/fluorometric imaging plate reader (FLIPR 384; Molecular Devices) was used and intracellular calcium mobilization was measured by increases in fluorescence upon agonist Quisqualate stimulation following 6 sec-baseline measurement. […]
pIC50: −log10 of the molar value.
Readout: pIC50

Solved cases below.
INSERT INTO assay_data (compound, readout, value_observed) VALUES
  ('COc1ccc(-n2ncc3c(sc4nccc(N(C)N)c43)c2=O)cc1 [Compound 23I]', 'pIC50', '> 7.70'),
  ('CCNc1ccnc2sc3c(=O)n(-c4ccc(OC)cc4)ncc3c12 [Compound 23O]', 'pIC50', '6.00 to 7.00'),
  ('CCNc1ccnc2sc3c(=O)n(-c4ccc(C)cc4)ncc3c12 [Compound 23R]', 'pIC50', '> 7.70');

(Q) Give pIC50 for the following compound: COc1ccc(-n2nc(C)c3c(sc4nccc(N(C)C)c43)c2=O)cc1 [Compound 13D]
(A) < 6.00

(Q) Give pIC50 for the following compound: COc1ccc(-n2ncc3c(sc4nccc(NCCO)c43)c2=O)cc1 [Compound 23F]
(A) 6.00 to 7.00

(Q) Give pIC50 for the following compound: Cc1ccc(-n2ncc3c(sc4nccc(NCCO)c43)c2=O)cc1 [Compound 23H]
(A) 6.00 to 7.00

====

# Test target: hmGluR1 receptor (Homo sapiens, UniProt Q13255)
# Construct: expressed in transfected cells; host or cells: CHO
# Procedure details: IC50 determination: intracellular calcium mobilization (FLIPR) upon Quisqualate stimulation in CHO cell line stably expressing hmGluR1
# Format: cell-based
# Cond: CHO cells expressing hmGluR1; against Quisqualate 1 μM (EC80); compounds added 10 minutes before Quisqualate; read-out: mGluR1 IC50 rating
pIC50: −log10 of the molar value.
The entries below come with measured pIC50 values attached.

Solved cases below.
INSERT INTO results (compound, value_observed) VALUES
  ('CN(C)c1ccnc2sc3c(=O)n(-c4ccc5scnc5c4)ncc3c12 [Compound 9E]', '> 7.70'),
  ('Cc1nn(C2CCCCC2)c(=O)c2sc3nccc(N(C)C)c3c12 [Compound 13C]', '< 6.00');

(Q) Fill: pIC50 (hmGluR1 receptor (Homo sapiens, UniProt Q13255)) for this compound Cc1ccc(-n2ncc3c(sc4nccc(N(C)C)c43)c2=O)cc1 [Compound 9A]
(A) > 7.70

(Q) Fill: pIC50 (hmGluR1 receptor (Homo sapiens, UniProt Q13255)) for this compound CN(C)c1ccnc2sc3c(=O)n(-c4ccc(Br)cc4)ncc3c12 [Compound 9D]
(A) > 7.70

(Q) Fill: pIC50 (hmGluR1 receptor (Homo sapiens, UniProt Q13255)) for this compound C#CCNc1ccnc2sc3c(=O)n(-c4ccc(C)cc4)ncc3c12 [Compound 23S]
(A) 7.00 to 7.70

====

The entries below come with measured IC50 values attached.
# Test target: hmGluR1 receptor (Homo sapiens, UniProt Q13255)
# Construct: expressed in transfected cells; host or cells: CHO
# Procedure details: IC50 determination: intracellular calcium mobilization (FLIPR) upon Quisqualate stimulation in CHO cell line stably expressing hmGluR1
# Format: cell-based
# Cond: CHO cells expressing hmGluR1; against Quisqualate 1 μM (EC80); compounds added 10 minutes before Quisqualate; read-out: mGluR1 IC50 rating

Solved cases below.
INSERT INTO measurements (compound, readout, value_observed) VALUES
  ('COc1ccc(-n2ncc3c(sc4nccc(OC)c43)c2=O)cc1 [Compound 21B]', 'IC50', '20 to 100 nM'),
  ('C#CCNc1ccnc2sc3c(=O)n(-c4ccc(OC)cc4)ncc3c12 [Compound 23M]', 'IC50', '100 to 1000 nM');

(Q) Give IC50 for the following compound: "CN(C)c1ccnc2sc3c(=O)n(-c4ccc(Cl)cc4)ncc3c12"
(A) < 20 nM

(Q) Give IC50 for the following compound: COc1ccnc2sc3c(=O)n(-c4ccc(C)cc4)ncc3c12 [Compound 21C]
(A) < 20 nM

(Q) Give IC50 for the following compound: COc1ccc(-n2ncc3c(sc4nccc(NC5CC5)c43)c2=O)cc1 [Compound 23B]
(A) 100 to 1000 nM

(Q) Give IC50 for the following compound: COc1ccc(-n2ncc3c(sc4nccc(N5CCC5)c43)c2=O)cc1 [Compound 23L]
(A) 100 to 1000 nM

(Q) Give IC50 for the following compound: CNc1ccnc2sc3c(=O)n(-c4ccc(OC)cc4)ncc3c12 [Compound 23N]
(A) 20 to 100 nM

(Q) Give IC50 for the following compound: COc1ncnc2sc3c(=O)n(-c4ccc(Cl)cc4)ncc3c12 [Compound 34A]
(A) 20 to 100 nM

(Q) Give IC50 for the following compound: CNc1ncnc2sc3c(=O)n(-c4ccc(OC)cc4)ncc3c12 [Compound 35C]
(A) 100 to 1000 nM

====

# Test target: hmGluR1 receptor (Homo sapiens)
# Construct: expressed in transfected cells; host or cells: CHO
# Procedure details: IC50 determination: intracellular calcium mobilization (FLIPR) upon Quisqualate stimulation in CHO cell line stably expressing hmGluR1
# Format: cell-based
# Cond: CHO cells expressing hmGluR1; against Quisqualate 1 μM (EC80); compounds added 10 minutes before Quisqualate; read-out: mGluR1 IC50 rating
Readout: IC50

INSERT INTO assay_data (compound, value_observed) VALUES
  ('O=c1c2sc3nccc(NCCO)c3c2cnn1-c1ccc(Cl)cc1 [Compound 23D]', '20 to 100 nM'),
  ('Cc1ccc(-n2ncc3c(sc4nccc(NC5CC5)c43)c2=O)cc1 [Compound 23G]', '< 20 nM'),
  ('CN(C)c1ccnc2sc3c(=O)n(-c4ccc5ncsc5c4)ncc3c12 [Compound 9F]', '< 20 nM'),
  ('O=c1c2sc3nccc(NC4CCC4)c3c2cnn1-c1ccc(Cl)cc1 [Compound 23J]', '100 to 1000 nM');

(Q) Give IC50 for the following compound: Cc1ccc(-n2nc(C)c3c(sc4nccc(N(C)C)c43)c2=O)cc1 [Compound 13B]
(A) > 1000 nM

(Q) Give IC50 for the following compound: CCNc1ncnc2sc3c(=O)n(-c4ccc(OC)cc4)ncc3c12 [Compound 35A]
(A) 100 to 1000 nM

(Q) Give IC50 for the following compound: CNc1ccnc2sc3c(=O)n(-c4ccc(Cl)cc4)ncc3c12 [Compound 23C]
(A) < 20 nM

(Q) Give IC50 for the following compound: COCCNc1ccnc2sc3c(=O)n(-c4ccc(OC)cc4)ncc3c12 [Compound 23E]
(A) > 1000 nM

(Q) Give IC50 for the following compound: COc1ccc(-n2ncc3c(sc4nccc(N5CC(O)C5)c43)c2=O)cc1 [Compound 23P]
(A) 100 to 1000 nM
